Overview of recorded interaction score for various binders
- study.target: T1, 4H584-bA
- T1 chain: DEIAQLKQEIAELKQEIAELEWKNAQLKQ
- test: two-hybrid library CCNG1;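 further: natural log of median RNA to DNA barcode read ratio; higher means stronger binding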
measured.property: interaction score

- binder: "DKNAQLKQKNAELEQEIAELEWKIAQLKQ [4H3974-bA]"
  observed: -1.38
- binder: "DKNAQLKQENAELKQKIAELKWEIAQLEQ [4H3817-bA]"
  observed: -1.24
- binder: "DENAQLEQKIAELKQKNAELEWEIAQLEQ [4H1393-bA]"
  observed: -1.22
- binder: "DENAQLEQENAELKQEIAELEWKIAQLKQ [4H1222-bA]"
  observed: -1.36
- binder: "DEIAQLKQEIAELEQKNAELKWEIAQLKQ [4H570-bA]"
  observed: -1.33
- binder: "DKNAQLEQEIAELEQKNAELKWEIAQLEQ [4H3129-bA]"
  observed: -1.75

This collection of values is drawn from paper PMC10397247.
